Tested on: Rattus norvegicus
experimentDescription: Activity against penile erection in Wistar rat at 0.3 umol/kg, sc
Assay type: functional
Measured Activity, listed per entry for reference.
Numbers only; they are read as %.

>>> df
                         structureassmiles  unitsymbol  numericvalue
0  CO/N=C(\CN1CCN(c2ccccn2)CC1)c1ccc(F)cc1           %            77
1     O/N=C(\CCN1CCN(c2ccccn2)CC1)c1ccccc1           %            60
2  Cc1cccc(C(=O)NCN2CCN(c3ccccc3C#N)CC2)c1           %            79

Prompt: Return reported Activity for target or system Rattus norvegicus, item CO/N=C(\CCN1CCN(c2ccccn2)CC1)c1ccc(Cl)c(Cl)c1 .
Response: 76

Prompt: Using Rattus norvegicus as the test system, report measured Activity of CO/N=C(\CCN1CCN(c2ccccn2)CC1)c1ccc(F)cc1 .
Response: 50

Prompt: For Rattus norvegicus, give Activity of the listed molecule: CCO/N=C(\CCN1CCN(c2ccccn2)CC1)c1ccccc1
Response: 55
